# test system: HLA-A*2401 (human)
# method: inhibition of 125I probe peptide binding to purified HLA; IC50 standard/IC50 test
quantity kind: relative binding ratio

{"binder": "HFNHSGICEL [HER2/neu 257-266]", "relative binding ratio": 0.0002}
{"binder": "EFAGCKKIF [HER2/neu 363-371]", "relative binding ratio": 0.0003}

[A] VFETLEEI [HER2/neu 399-406]
[B] EYVNARHCL [HER2/neu 553-561]
[C] PYVSRLLGI [HER2/neu 780-788]
Sort these binders on relative binding ratio so the largest reading comes first. List labels; respect the requested ordering.
C, B, A
(C: 0.17, B: 0.0061, A: -0.0003)
